Taken from ChEMBL document CHEMBL4028833.

Here the recorded pIC50 is given for each entry.
- Tested on: WI-38
- assay_info: Cytotoxicity against human W138 cells after 72 hrs by MTT assay
- Assay type: cell-based
- condition_parameters: WI-38, 72 h
pIC50: −log10 of the molar value.
reported_endpoint: pIC50

entry_smiles=O=C(/C=C/C(=O)N1CCC=C(Cl)C1=O)N1CCC=C(Cl)C1=O reported_endpoint=pIC50 inequality_symbol== observed_measurement=4.05
entry_smiles=O=C(/C=C/c1cccnc1)N1CCC=C(Cl)C1=O reported_endpoint=pIC50 inequality_symbol== observed_measurement=4.33
entry_smiles=O=C(/C=C/c1ccoc1)N1CCC=C(Cl)C1=O reported_endpoint=pIC50 inequality_symbol=< observed_measurement=4.00
entry_smiles=O=C1C(Cl)=CCCN1C(=O)c1ccco1 reported_endpoint=pIC50 inequality_symbol=< observed_measurement=4.00
entry_smiles=O=C(/C=C/c1ccccc1)N1CCC=C(Cl)C1=O reported_endpoint=pIC50 inequality_symbol== observed_measurement=4.07
entry_smiles=O=C1C(Cl)=CCCN1C(=O)c1ccncc1 reported_endpoint=pIC50 inequality_symbol=< observed_measurement=4.00
entry_smiles=O=C1C(Cl)=CCCN1C(=O)c1cnc2ccccc2c1 reported_endpoint=pIC50 inequality_symbol=< observed_measurement=4.00

----------
- System: A549
- assay_info: Antiproliferative activity against human A549 cells after 72 hrs by MTT assay
- Assay type: functional, cell-based
- condition_parameters: A549, 72 h
Here the recorded IC50 is given for each entry.
reported_endpoint: IC50

compound=O=C(/C=C/C(=O)N1CCC=C(Cl)C1=O)N1CCC=C(Cl)C1=O observed_measurement="8.6 µM"
compound=O=C(/C=C/c1ccco1)N1CCC=C(Cl)C1=O observed_measurement="8.3 µM"
compound=O=C1C(Cl)=CCCN1C(=O)c1ccncc1 observed_measurement="> 100 µM"
compound=O=C1C(Cl)=CCCN1C(=O)c1cnc2ccccc2c1 observed_measurement="10.6 µM"
compound=O=C(/C=C/c1ccccc1)N1CCC=C(Cl)C1=O observed_measurement="4.12 µM"
compound="COc1cc(/C=C/C(=O)N2CCC=CC2=O)cc(OC)c1OC [PIPLARTINE]" observed_measurement="6.84 µM"
compound=O=C(C#Cc1ccccc1)N1CCC=C(Cl)C1=O observed_measurement="7.93 µM"
compound=O=C(/C=C/c1ccoc1)N1CCC=C(Cl)C1=O observed_measurement="11 µM"
compound=O=C1C(Br)=CCCN1C(=O)c1cnc2ccccc2c1 observed_measurement="> 100 µM"
